B1: ZNF207 (parent)
chain: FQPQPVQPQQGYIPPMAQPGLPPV

variants of: B1; test: protein stability index of a GFP-peptide fusion (GPS, HEK-293T) (PSI 1-6); higher = more stable; conditions: c terminus: a fixed tail appended;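 also: lentivirally expressed fusions sorted by FACS into six bins by GFP to DsRed ratio, PSI derived from sequencing read proportions per bin multiplied by bin number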
Consider the following variants and their measured protein stability index readings.
readout.label: protein stability index

mutation: P23F
result: 1.88
//
mutation: I13L
result: 3.52
//
mutation: P22M
result: 2.4
//
mutation: Q10D
result: 3.54
//
mutation: P22E
result: 3.08
//
mutation: P23N
result: 2.69
//
mutation: V24K
result: 2.92
//
mutation: V24W
result: 1.8
//
mutation: Q4L
result: 2.88
//
mutation: Q18C
result: 2.37
//
mutation: P8M
result: 2.47
//
mutation: G20K
result: 2.27
//
mutation: Q2Y
result: 2.92
//
mutation: Q7L
result: 3.04
//
mutation: P23W
result: 1.7
//
mutation: P5V
result: 2.57
//
mutation: Q10C
result: 2.5
//
mutation: Q7F
result: 2.72
//
mutation: G11Q
result: 3.18
//
mutation: Q2I
result: 1.9
//
mutation: Q10I
result: 2.12
//
mutation: G11E
result: 3.69
